Entries and their IC50 values follow.
- SYSTEM NAME: Glutamate NMDA receptor
- PROCEDURE SUMMARY: Concentration required to inhibit 50% of the specific binding of [3H]glycine to NMDA receptor prepared from rat cerebral cortex and hippocampus
- Type: tissue-based
Expressed in µM, but write only the number.

Below are worked cases with known answers.
Request: # get_value(readout='IC50', item= COC(=O)C[C@H]1C[C@H](C(=O)O)Nc2cc(Cl)cc(Cl)c21 )
Result: 0.603

Request: # get_value(readout='IC50', item= O=C1CC(C(=O)O)Nc2cc(Cl)ccc21 (stereo not drawn) )
Result: 2.36

Request: # get_value(readout='IC50', item= O=C1CC(C(=O)O)Nc2cc(Br)cc(Br)c21 (stereo not drawn) )
Result: 1.29

***
Request: # get_value(readout='IC50', item= O=C(O)[C@@H]1C[C@H](C(=O)OCc2ccccc2)c2c(Cl)cc(Cl)cc2N1 )
Result: 2.33

Request: # get_value(readout='IC50', item= NC(=O)[C@H]1C[C@H](C(=O)O)Nc2cc(Cl)cc(Cl)c21 )
Result: 0.72

Request: # get_value(readout='IC50', item= COC(=O)[C@H]1C[C@H](C(=O)O)Nc2cc(Cl)ccc21 )
Result: 16.9

Request: # get_value(readout='IC50', item= COC(=O)[C@H]1C[C@@H](C(=O)O)Nc2cc(Cl)ccc21 )
Result: 5.02

Request: # get_value(readout='IC50', item= COC(=O)[C@H]1C[C@@H](C(=O)O)Nc2cc(Cl)cc(I)c21 )
Result: 4.18

Request: # get_value(readout='IC50', item= NC(=O)[C@H]1C[C@@H](C(=O)O)Nc2cc(Cl)cc(Cl)c21 )
Result: 3.44

Request: # get_value(readout='IC50', item= COC(=O)[C@H]1C[C@@H](C(=O)O)Nc2cccc(Cl)c21 )
Result: 26.1

Request: # get_value(readout='IC50', item= O=C(O)C[C@H]1C[C@H](C(=O)O)Nc2cc(Cl)cc(Cl)c21 )
Result: 0.134
